target: T1, recombinant human GM-CSF (rhGM-CSF), produced in E. coli (human, UniProt P04141 18-144); test: SPR off-rate ranking, purified periplasmic preparation over immobilized rhGM-CSF; clone listed among the sequenced hits in the 2nd table
T1 construct: The ELISA of 2.5.2 and the TF-1 proliferation assays say only rhGM-CSF without naming the preparation; they are assigned to this molecule; also called human GM-CSF antigen; recombinant human granulocyte macrophage colony stimulating factor
T1 sequence (P04141 18-144 limits assumed): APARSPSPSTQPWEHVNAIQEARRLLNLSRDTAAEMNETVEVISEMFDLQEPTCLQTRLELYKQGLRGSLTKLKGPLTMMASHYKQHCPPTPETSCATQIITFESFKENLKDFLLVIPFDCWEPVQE
measurement_name: binding result

[
  {
    "binder": "half-human SCA C32oN-46 (scFv, Expressed from pComb3H5BFlag/His) scFv: ELQLVEQSGAALVKPGDSVKMSCKASGYPFTDYIVHWVKQSHGKSLDWIGYINPYSGDTKFNEKFKSKATLTVDKSSSTAYMEFSRLTSEDSAIYYCARSGLIAVYFDYWGQGTTVTVSSGGGGSGGGGSGGGGSELVLTQSPDFQSVTPKEKVTITCRASQSIGSSLHWYQQKPDQSPKLLIKFASQSLSGVPSRFSGSGSGTDFTLTISSLQPEDFATYYCQQSYSTPPTFGQGTKVEIKTGDYKDDDDKHHHHHH",
    "measurement_name": "binding result",
    "assay_value": "binds"
  },
  {
    "binder": "half-human SCA B33oN-35 (scFv, Expressed from pComb3H5BFlag/His) scFv: ELQLVEQSGAALVKPGDSVKMSCKASGYPFTDYIVHWVKQSHGKSLDWIGYINPYSGDTKFNEKFKSKATLTVDKSSSTAYMEFSRLTSEDSAIYYCARSGLIAVYFDYWGQGTTVTVSSGGGGSGGGGSGGGGSELQMTQSPSSLSASVGDRVTITCRASQSIGSSLHWYQQKPDQSPKLLIKFASQSFSGVPSRFGGSGSGTNFTLTINSLEAEDAATYYCQQSSTLPPTFGQGTKLEIKTGDYKDDDDKHHHHHH",
    "measurement_name": "binding result",
    "assay_value": "binds"
  },
  {
    "binder": "half-human SCA B32oN-10 (scFv, Expressed from pComb3H5BFlag/His) scFv: ELQLVEQSGAALVKPGDSVKMSCKASGYPFTDYIVHWVKQSHGKSLDWIGYINPYSGDTKFNEKFKSKATLTVDKSSSTAYMEFSRLTSEDSAIYYCARSGLIAVYFDYWGQGTTVTVSSGGGGSGGGGSGGGGSELQMTQSPSSLSASVGDRVTITCRTSQTISSLLNWYQQKPGKAPKLLIYAASNLQSGVPSRFSGSGSGTDFTLTISGLQPEDFSTYFCQQSYSFPRTFGQGTKVDIKTGDYKDDDDKHHHHHH",
    "measurement_name": "binding result",
    "assay_value": "binds"
  }
]
